Just for reference, ChEMBL document CHEMBL1141650 is where these values come from.

Provide the recorded ΔTm for the entries that follow.
test: Stability of F21T DNA quadruplex sequence d[G3(T2AG3)3] assessed as thermal denaturation by FRET analysis
Answers are plain numbers, in °C.

Solved cases (4 shown):
entry.smiles	value.unit	ΔTm
COS(=O)(=O)[O-].Cc1cc2c3c([n+](C)c4ccccc4c3c1)-c1ccccc1N2C	°C	2
CN(C)c1ccc2c3cccc4c3c([n+](C)c2c1)-c1ccccc1N4C	°C	3.8
CC(=O)Nc1ccc2c3cccc4c3c([n+](C)c2c1)-c1ccccc1N4C.[I-]	°C	10
COc1cc2c3c([n+](C)c4ccc(Cl)cc4c3c1)-c1ccccc1N2C.[I-]	°C	9

Your task in this section: give ΔTm for each listed record.
1. CC(=O)OCCCc1cc2c3c([n+](C)c4ccc(CCCOC(C)=O)cc4c3c1)-c1ccccc1N2C
2. Cc1cc2c3c([n+](C)c4ccc(F)cc4c3c1)-c1cc(F)ccc1N2C
3. COc1cc(NS(C)(=O)=O)ccc1Nc1c2ccccc2nc2ccccc12

Output line:
0.5
8
0

---

assay: Growth inhibition of human NCI60 cells after 2 days; format: functional; conditions: Homo sapiens, NCI60, 48 h
Binarize GI50 at 1 µM; below is t, at or above is f.

Reference set (4 entries):
entry.smiles	qualitative.label
CCN1c2ccccc2-c2c3c1cc(C)cc3c1ccccc1[n+]2CC.[I-]	f
Cc1cc2c3c([n+](C)c4ccc(Cl)cc4c3c1)-c1cc(Cl)ccc1N2C	f
CN1c2ccccc2-c2c3c1cccc3c1ccc(NC(=O)C(F)(F)F)cc1[n+]2C.[I-]	f
CCOC(=O)Nc1ccc2c3cccc4c3c([n+](C)c2c1)-c1ccccc1N4C	t

Input line: Identify whether the compound "c1ccc2c(c1)Nc1cccc3cc4[n+](c-2c13)CCC4" records GI50 below 1 µM.
Output line: t

---

assay: Stability of F21T DNA quadruplex sequence d[G3(T2AG3)3] assessed as thermal denaturation by FRET analysis
Assign ΔTm to each entry below.
Answers are plain numbers, in °C.

For every record below, what is its ΔTm?
1. CN1c2ccccc2-c2c3c1cccc3c1cc(Cl)ccc1[n+]2C.[I-]
2. CN1c2ccccc2-c2c3c1cccc3c1cc(/C=C/C(=O)N3CCOCC3)ccc1[n+]2C
3. COS(=O)(=O)[O-].Cc1ccc2c(c1)-c1c3c(cc(C)cc3c3cc(C)ccc3[n+]1C)N2C
4. CCN1c2ccccc2-c2c3c1cc(C)cc3c1ccccc1[n+]2CC.[I-]
5. CN1c2ccccc2-c2c3c1cccc3c1ccccc1[n+]2C.[I-]

Output line:
[5, 4.5, 7, 0, 2.8]

---

organism: Homo sapiens; experiment: Binding affinity to quadruplex human telomeric sequence d[AG3(TTAGGG3) by fluorescence titration method
Assign K to each entry below.

entry.smiles	K
CC(=O)OCCCc1cc2c3c([n+](C)c4ccc(CCCOC(C)=O)cc4c3c1)-c1ccccc1N2C	1.6 10^5/M

Give K for each of the items listed below.
1. CN1c2ccccc2-c2c3c1cccc3c1cc(Cl)ccc1[n+]2C.[I-]
2. CN1c2ccccc2-c2c3c1cccc3c1ccccc1[n+]2C.[I-]
3. Cc1cc2c3c([n+](C)c4ccc(F)cc4c3c1)-c1cc(F)ccc1N2C
4. CN1c2ccccc2-c2c3c1cccc3c1ccc(NC(=O)C(F)(F)F)cc1[n+]2C.[I-]
5. CN1c2ccccc2-c2c3c1cccc3c1ccc(N(C)S(=O)(=O)c3ccc(F)cc3)cc1[n+]2C.[I-]
6. CC(=O)Nc1ccc2c3cccc4c3c([n+](C)c2c1)-c1ccccc1N4C.[I-]

Output line:
6.7 10^5/M
0.91 10^5/M
2.7 10^5/M
6 10^5/M
1.9 10^5/M
3.7 10^5/M
